Tested on: RPMI-8226 leukemia
TEST NAME: NCI-60 one-dose screen, 48 h (100 = growth as untreated, 0 = no growth, -100 = all killed)
CONDITION NOTES: 10 µM unless noted
About 83,000 compounds went through this panel and 20% of them were active in at least one assay; those are over-represented in the sample as a whole.
MEASURE: growth (%)
Give the quantity in %, number only.

Give the measured growth for COc1ccc(C(=O)CSc2nc(-c3cc(OC)ccc3OC)cc(-c3ccc(Cl)cc3)c2C#N)cc1
78.5

Supply recorded growth for CN1[C@@H]2CC[C@H]1/C(=C\c1ccccc1)C(=O)/C2=C/c1ccccc1 here.
27

Write down growth measured for item COc1cc(NC(C)CCCNC(=O)CCC(=O)NCCCNCCCCCCCCNCCCNC(=O)CCC(=O)NCCCC(C)Nc2cc(OC)cc3cccnc23)c2ncccc2c1 (centres undefined)
53.5

Tell me measured growth for Nc1n[nH]c2cccc(C#Cc3cccc(C(=O)Nc4cccc(C(F)(F)F)c4)c3)c12 please.
58.9

###

System: CCRF-CEM leukemia
TEST NAME: NCI-60 one-dose screen, 48 h
CONDITION NOTES: 10 µM unless noted
About 83,000 compounds went through this panel and 20% of them were active in at least one assay; those are over-represented in the sample as a whole. Calls of active or inactive are those of the source. How the source made its calls: active means growth percent below 10; inactive means the rest.
Hi there, use one of these labels in your reply, thanks! label 1 (active), label 0 (inactive)

For Cc1ccc(S(=O)(=O)NNC(=O)/C(=C\c2ccc(Cl)cc2)c2nc3ccccc3s2)cc1 , which call appears in the assay record?
label 0

Query: recorded result category for NC(=NCCCOc1ccc(F)cc1)Nc1ccc(Cl)cc1 in this test
label 0

Give the logged outcome of this assay for the following compound: O=S(=O)(NCCNc1nccc(-c2c(-c3cccc(O)c3)nc3occn23)n1)c1ccccc1
label 0

Test call for this compound, please: CC(=O)Oc1ccc(/C=N/NC(N)=S)nc1
label 0

Could you kindly confirm the outcome this assay logged for CCCOc1ccc(/C=N/Nc2cc(C)nc3ccc(Cl)cc23)cc1 ?
label 1

Assay outcome for CC(C)c1ccc(Nc2ccc3c(OCCCN4CCN(C)CC4)cccc3n2)cc1 : what was it?
label 0

Could you check what this test reported for Cc1cnc(C(=O)Nc2nc3ccc(S(=O)(=O)Nc4ccc(C5(C(F)(F)F)CC5)cc4)cc3[nH]2)cn1 ?
label 0

Any idea what this test logged for O=S(=O)(NCCNc1nccc(-c2c(-c3cccc(F)c3)nc3sccn23)n1)c1ccc(Cl)cc1 ?
label 0

Can you look up the reported call for CN(C)CCn1c2ccc(Br)cc2c2nc3ccccc3nc21 for me?
label 0

// return assay outcome for COc1cc2c(-c3cc4c(cc3CNCCc3ccc5c(c3)OCO5)OCO4)cccc2c(OC)c1O
label 0

// param item: O=c1ccc(-c2nc(N3CCOCC3)c3ccccc3n2)c[nH]1 ; yields the recorded call
label 0

Hi, sorry to bother you, what did the test record for COc1cc2nc(-c3ccc(C(F)(F)F)cc3)cc(OCCCN3CCOCC3)c2cc1OC ?
label 0

Tell me the assay call for CCCCN1C=CCN(CCCC)C1 please.
label 0

Tell me the recorded outcome of this test for Cc1ccc(S(=O)(=O)Nn2c3c(cc(-c4nc5ccccc5s4)c2=O)CCCCCC3)cc1 .
label 0

###

Test system: EKVX NSCLC
TEST NAME: NCI-60 one-dose screen, 48 h (100 = growth as untreated, 0 = no growth, -100 = all killed)
CONDITION NOTES: 10 µM unless noted
This is part of a sample that, as a whole, favours compounds with a hit. Of some 83,000 tested, about 20% had one in any assay.
MEASURE: growth (%)
Record the value in %, omitting the unit from your answer.

Return growth (reported value) for this molecule: C=C1C(=O)O[C@H]2[C@H]1CC/C(COC(=O)NCc1c[nH]c3ccc(Br)cc13)=C\CC[C@@]1(C)O[C@@H]21
-16.5

Determine its reported growth: CC1(C)CC[C@]23CC[C@]4(C)[C@H](CC[C@@H]5[C@@]6(C)CCCNC(C)(C)[C@@H]6CC[C@]54C)[C@H]2[C@H]1OC3
23.2

Output measured growth for this item: N#C/C(=C\c1ccc(Cl)cc1)n1nnc2cc(F)c(F)cc21
59.3

Return growth (reported value) for this molecule: Cc1ccc(-c2csc(NC(=O)CSc3nc(-c4ccccc4)cc(=O)[nH]3)n2)cc1
90.9

Read off the recorded growth for O=[N+]([O-])CC(c1ccccc1F)c1c[nH]c2ccccc12 (stereo unspecified)
79.4

Write down growth measured for item CN1CCN(C(=O)[C@]23CCC(C)(C)C[C@H]2C2=CC[C@@H]4[C@@]5(C)C/C(=C/c6cccnc6)C(=O)C(C)(C)[C@@H]5CC[C@@]4(C)[C@]2(C)CC3)CC1
78.8
